Here the recorded protein stability index is given for each entry.
experiment: protein stability index of a GFP-peptide fusion (GPS, HEK-293T) (PSI 1-6); higher = more stable; conditions: treatment: DMSO; c terminus: a fixed tail appended;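 also: 24-mer peptide tiles fused after GFP, lentivirally expressed, FACS-sorted into six equal bins by GFP/DsRed ratio, decoded by Illumina sequencing, PSI is the read-weighted mean bin number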
Please state the value as a number alone, without comment.

Observe how each entry below is paired with its result.
Form field: reported protein stability index of LAAAHGHSEVVEELVSADVIDLFD [RIPK4]
4.08

May I ask what protein stability index has been recorded for KKEMNKSDLNTNNLLFKPPVESHI [KMT2E] ?
3.47

Others:
Would you kindly share the measured protein stability index for QLWSNVTPLTFTKVSEGQADIMIS [MMP1] ?
2.58

What protein stability index value was documented for this sequence, RQVVQDLLKAGAEVNVLNDMRDTP [OSBPL1A] ?
4.45

Any idea what protein stability index was measured for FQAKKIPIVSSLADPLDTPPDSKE [PDZK1] ?
4.16

Given the entry SGGPPPKRSAPSGPVRSSSGMGGR [RBMX] , report its measured protein stability index.
4.59

Entry KQPPVTQSKTASDKSPSTVRDQGP [FBF1] : reported protein stability index = ?
5.29

May I ask what protein stability index has been recorded for RAPRSPGQVTPRGLRLRLPRRESL [C6orf223] ?
4.19

Give its protein stability index value. Item: VVAVHVVLALFVYVAWNEGSRQWR [VMA21]
2.84

Please look up its protein stability index: LEGQSPPQSLPSTPKAAWIREEGR [PBXIP1]
4.89

What protein stability index value was documented for this sequence, LPVDDDSDLNVVASFDRRGEYIYT [RBBP5] ?
3.41

Reported protein stability index for RRSISSSRSENVLSRLSLMAMPNG [PSD2] : what is it?
3.54

// protein stability index lookup, key: PRSSLAESFFVDYEENEGAGPYLL [ADAMTSL2]
3.91

Tell me the measured protein stability index of SNVKVETQSDEENGRACEMNGEEC [IKZF1] , please.
5.75

Given the entry ARQAACCVARPGTPSLLRFALASL [ZSWIM9] , report its measured protein stability index.
2.33

Can you look up the measured protein stability index of SGLGYIAGSKVKDMAGDWHWALRV [SPNS1] for me?
2.64

Reported protein stability index for LCNEISLSEIKDAPKVNAVDTLNV [DLC1] : what is it?
3.77

Which value of protein stability index has been reported for AHVNTLHSGTKRDPKEDVFQQNHL [PHTF1] in the records?
4.31

* * *

Let's look at some sequences and their measured protein stability index.
assay: protein stability index of a GFP-peptide fusion (GPS, HEK-293T) (PSI 1-6); higher = more stable; details: treatment: MLN4924 1 uM, 8 h; c terminus: a fixed tail appended
Lab note: jot the number down without any unit.

Given QNCLWTLRNLSDAATKQEGMEGLL [CTNNB1] , state its recorded protein stability index.
3.04

Please give the measured protein stability index for this sequence: VLKRQRKRRVALSPVTENSTSLSF [MYBL2]
3.5

Record request: protein stability index value, item YWRYDEYKRSMDPGYPKMIAHDFP [MMP1]
2.18

Record request: protein stability index value, item DSLPMDAYTHGCILHPELTVDSMI [GDAP1]
3.47

So what does the record say about protein stability index for MRLSWSVAQGPFDSFVVQYEDTNG [TNXB] ?
2.21

---
Entry KGTFSDVTFKLDDGAISAHKPLLI [RHOBTB1] : reported protein stability index = ?
2.55

Quick one: protein stability index of VPSEWLSSVYKQQWFAMLRAEQDS [GMCL1] ?
2.43

// query protein stability index value for entry PAPTPTPPGRLGAPYSEAWGYFHL [ZBED3]
2.23

So what does the record say about protein stability index for DPSKRALSRDTVQESYENVDSLES [ZNF263] ?
5.56

Which value of protein stability index has been reported for TFPASVLAPVPTHSTVSELSRSPV [DUSP5] in the records?
4.14

Fill in: protein stability index of LHSGLVHGLAFWFDVAFIGSIMTV [CARM1] is ___
3.56

Dear colleague, I am looking for the recorded protein stability index of the following sequence: LIDVCKYLGSLQYRVWKKMLASVE [TRIM35]
2.25

Query (sequence): AAPRTLAAHPPLPLLPPAMGTEPA [TBX6] ; field requested: protein stability index
4.57

Can you look up the measured protein stability index of FDSPSLCSSSTRSVLKRPERSQEE [CDC25A] for me?
5.12
